Source listed as patent US12686809B2.

- EXPERIMENT SUMMARY: Density difference between surfactant solution and crude oil
- Format: physicochemical
- TEST SETTINGS: ~0.1 wt % in blank brine vs reservoir crude oil; ambient conditions
PARAMETER MEASURED: Δρ (change in density) (g/mL)
# output: bare number, implied unit g/mL

Reference set, count: 7
* CCCCCCCC[N+](C)(C)C.[Cl-] [TOAC, Trimethyloctylammonium chloride] | 0.3822
* CCCCCCCCCCCC[N+](C)(C)C.[Cl-] [DTAC, Dodecyltrimethylammonium chloride] | 0.3826
* CCCCCCCCCCCC[N+](C)(C)C.[Br-] [DTAB, Dodecyltrimethylammonium bromide] | 0.3835
* CCCCCCCCCCCCCCCCCC[N+](C)(C)C.[Cl-] [TSAC, Trimethyloctadecylammonium chloride] | 0.3829
* CCCCCCCCCCCCCCCC[N+](C)(C)C.[Cl-] [CTAC, Cetyltrimethyl ammonium chloride] | 0.3834
* CCCCCCCCCCCCCCCCCC[N+](C)(C)C.[Br-] [TODAB, Trimethyloctadecylammonium bromide] | 0.3831
* CCCCCCCCCCCCCCCC[N+](C)(C)C.[Br-] [CTAB, Hexadecyltrimethylammonium bromide] | 0.382

// next entry
IN: Looking for the measured Δρ (change in density) of CCCCCCCC[N+](C)(C)C.[Br-] [TOAB, Trimethyloctylammonium bromide] , can you help?
OUT: 0.3823
